- Target or system: T1, human IL-15Rα (human, UniProt Q13261 31-205, limits assumed)
- T1 construct: also called hIL-15Rα; IL-15 receptor alpha
- T1 sequence (Q13261 31-205 limits assumed): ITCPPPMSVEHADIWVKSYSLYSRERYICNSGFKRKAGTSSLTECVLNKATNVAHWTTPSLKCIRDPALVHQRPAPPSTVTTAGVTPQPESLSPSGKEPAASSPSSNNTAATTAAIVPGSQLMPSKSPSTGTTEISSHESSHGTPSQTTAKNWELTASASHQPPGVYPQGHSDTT
- Assay protocol: SPR, steady state
pKd: −log10 of the molar value.
Quantity measured: pKd

>  <Binder>
hIL-15 V49R/I111K (ligand) NWVNVISDLKKIEDLIQSMHIDATLYTESDVHPSCKVTAMKCFLLELQRISLESGDASIHDTVENLIILANNSLSSNGNVTESGCKECEELEEKNIKEFLQSFVHIVQMFKNTGGGGSGHHHHHHHHGGGLNDIFEAQKIEWHE

>  <Experimental value>
6.70

$$$$
>  <Binder>
hIL-15 V49R/K11E (ligand) NWVNVISDLKEIEDLIQSMHIDATLYTESDVHPSCKVTAMKCFLLELQRISLESGDASIHDTVENLIILANNSLSSNGNVTESGCKECEELEEKNIKEFLQSFVHIVQMFINTGGGGSGHHHHHHHHGGGLNDIFEAQKIEWHE

>  <Experimental value>
6.80

$$$$

All values here come from patent US20210324028A1.
